// provenance: patent US20050065208A1

tested.system: IK(Ado), adenosine activated K-current (Homo sapiens, UniProt P48544+P48549)
Construct: electrophysiology technique applied to cardiomyocyte cultures; endogenous in cells
Sequence (P48549 1-501): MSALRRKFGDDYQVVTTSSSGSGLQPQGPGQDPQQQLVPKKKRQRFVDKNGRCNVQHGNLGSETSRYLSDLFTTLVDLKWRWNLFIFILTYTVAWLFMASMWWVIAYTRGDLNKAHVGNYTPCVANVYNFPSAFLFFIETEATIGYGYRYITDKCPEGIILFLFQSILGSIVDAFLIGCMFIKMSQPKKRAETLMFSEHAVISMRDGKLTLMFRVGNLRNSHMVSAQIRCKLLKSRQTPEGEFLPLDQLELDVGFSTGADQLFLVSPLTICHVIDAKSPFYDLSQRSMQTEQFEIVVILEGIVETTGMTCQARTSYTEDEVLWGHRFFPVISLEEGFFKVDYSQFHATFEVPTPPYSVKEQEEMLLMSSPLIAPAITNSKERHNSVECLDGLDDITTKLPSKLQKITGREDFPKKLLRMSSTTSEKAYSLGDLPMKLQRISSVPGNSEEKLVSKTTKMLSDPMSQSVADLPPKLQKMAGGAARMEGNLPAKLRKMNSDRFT
Sequence (P48544 1-419): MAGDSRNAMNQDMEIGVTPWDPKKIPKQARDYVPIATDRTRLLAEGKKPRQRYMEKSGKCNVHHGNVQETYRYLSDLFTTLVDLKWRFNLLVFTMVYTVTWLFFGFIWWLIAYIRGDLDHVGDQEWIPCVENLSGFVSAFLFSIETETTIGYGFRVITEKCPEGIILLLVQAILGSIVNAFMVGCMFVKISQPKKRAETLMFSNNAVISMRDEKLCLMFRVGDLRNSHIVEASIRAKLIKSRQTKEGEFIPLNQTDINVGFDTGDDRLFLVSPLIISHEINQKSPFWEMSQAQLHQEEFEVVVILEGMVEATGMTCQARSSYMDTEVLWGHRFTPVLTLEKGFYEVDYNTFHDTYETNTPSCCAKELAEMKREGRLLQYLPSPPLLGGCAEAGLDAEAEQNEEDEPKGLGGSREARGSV
procedure.text: Voltage clamp on cardiomyocyte cultures: inhibition of adenosine-induced K-current
Assay type: cell-based
condition.description: current induced by adenosine
Text: In the present invention acute and chronic effects of various compounds have been investigated by using electrophysiology technique applied to cardiomyocyte cultures. The inhibitory effects occur within seconds after induction of the current with ACh, Ado or dinitrophenole (DNP reduces intracellular ATP). The acute inhibitory effects caused by the compounds of the present invention on these K-currents in cardiac muscle tissue had not previously been discovered. […]
property.measured: pIC50
Give bare numbers, as −log10 of the molar value.

Lab note: measured pIC50 of Cc1oc2ccccc2c1C(=O)c1cc(I)c(O)c(I)c1 [Example E5] was 6.00
